Source listed as patent US12195427B2.

# test target: MASP-2 CCP2-SP (Homo sapiens (Human), UniProt O00187)
# Sequence (O00187 445-686): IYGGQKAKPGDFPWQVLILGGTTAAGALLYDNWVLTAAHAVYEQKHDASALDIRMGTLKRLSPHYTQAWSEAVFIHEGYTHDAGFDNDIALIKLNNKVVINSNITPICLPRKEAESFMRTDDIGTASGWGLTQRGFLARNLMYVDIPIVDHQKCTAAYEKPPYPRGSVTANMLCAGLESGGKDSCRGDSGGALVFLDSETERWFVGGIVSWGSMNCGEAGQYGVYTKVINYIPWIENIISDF
# Sequence (O00187 364-432 partner): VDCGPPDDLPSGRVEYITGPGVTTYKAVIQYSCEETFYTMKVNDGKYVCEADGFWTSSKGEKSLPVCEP
# method description: MASP-2 co-crystallization, X-ray crystallography and structure analysis (H-bonds, van der Waals contacts)
# details: Table A6-2 pharmacophore angle
readout label: a(O2, N2, C2)
Could you keep your reply to the number by itself?

C[C@H](NC(=O)[C@H]1C[C@@H](c2ccccc2)CCN1)C(=O)NCc1cnc2[nH]cc(Cl)c2c1 [compound 1433] : 129.89
Cc1nc(N)ccc1CNC(=O)C(C)NC(=O)C1CC(c2cccc3ccccc23)CCN1.Cl.Cl (centres unmarked) [1297_3] : 132.31
C[C@H](NC(=O)[C@H]1C[C@@H](c2ccccc2)CCN1)C(=O)NCc1cc(Cl)ccc1O.Cl [1078_12] : 130.32
N=C(N)c1ccc(CNC(=O)[C@@H]2CCN2C(=O)[C@H]2Cc3ccccc3CN2)cc1 [compound 1034] : 100.68

--- query ---
Ask | Find the measured a(O2, N2, C2) of Cc1nc(N)ccc1CNC(=O)[C@H](C)NC(=O)[C@H]1C[C@@H](c2cccc3ccccc23)CCN1.Cl.Cl [1297_4] and report it.
Reply | 131.10

* * *

# test target: MASP-2 CCP2-SP (Homo sapiens (Human), UniProt O00187)
# method description: MASP-2 co-crystallization, X-ray crystallography and structure analysis (H-bonds, van der Waals contacts);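 for Ligand-pharmacophore element distance, pharmacophore element CA2: distance from averaged pharmacophore element to bound ligand; missing value means element absent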
# details: Table A4-1; element CA2
Counter-ions that a name gives are not always drawn.
readout label: Ligand-pharmacophore element distance, pharmacophore element CA2

C[C@H](NC(=O)[C@H]1C[C@@H](c2ccccc2)CCN1)C(=O)NCc1cc(Cl)ccc1O.Cl [1078_2] : 0.61
N=C(N)c1ccc(CNC(=O)C(CF)NC(=O)[C@H](N)CCc2ccccc2)cc1 (stereo partly shown) [compound 1050, Dihydrochloride] : 0.33
Cc1nc(N)ccc1CNC(=O)[C@H](C)NC(=O)[C@H]1C[C@H](Cc2cc(Cl)cc(Cl)c2)CN1 [compound 1435, Dihydrochloride] : 0.8

Kindly review the next molecule as well.
Ask | Please report the measured Ligand-pharmacophore element distance, pharmacophore element CA2 for C[C@H](NC(=O)[C@H](N)CCCc1ccccc1)C(=O)NCc1ccc(C(=N)N)cc1.Cl.Cl [1042_1]
Reply | 0.48

* * *

# test target: MASP-2 CCP2-SP (Homo sapiens (Human), UniProt O00187)
# method description: MASP-2 co-crystallization, X-ray crystallography and structure analysis (H-bonds, van der Waals contacts)
# Set-up: unit not given beside the values
# details: Table A5-1 pharmacophore: distance between elements, S2/S1 region
# Source text: This example illustrates the preparation of recombinant MASP-2 protein, based on UniProt O00187, human mannan-binding lectin serine protease 2. Expression constructs for human MASP-2 CCP2-SP and CCP2-SP-6HIS were generated for recombinant expression in E. coli cells. […]
readout label: d(CA1,O2)

Answered examples (3):
Cc1nc(N)ccc1CNC(=O)[C@H](C)NC(=O)[C@H]1C[C@H](Cc2cccc(Cl)c2)CN1.Cl.Cl [1328_3] : 3.89
Cc1nc(N)ccc1CNC(=O)[C@H](C)NC(=O)[C@H]1C[C@H](Cc2ccc(-c3ccccc3)cc2)CN1 : 3.79
C[C@H](NC(=O)[C@H]1C[C@@H](c2ccccc2)CN1)C(=O)NCc1ccc2c(N)nccc2c1.Cl.Cl [1089_A] : 5.19

Now look at this one.
Ask | Read off the recorded d(CA1,O2) for C[C@H](NC(=O)[C@H]1C[C@@H](c2ccccc2)CN1)C(=O)NCc1ccc2c(N)nccc2c1.Cl.Cl [1089_B]
Reply | 5.17
